molecular target: hSSB1 (Homo sapiens, UniProt Q9BQ15 Q9BQ15:1-211); test: EMSA; 10 mM Tris, 1 mM EDTA, 37C; Table 7 gives 3 nM; details: label: FAM
Sequence (Q9BQ15 whole entry, one chain of several): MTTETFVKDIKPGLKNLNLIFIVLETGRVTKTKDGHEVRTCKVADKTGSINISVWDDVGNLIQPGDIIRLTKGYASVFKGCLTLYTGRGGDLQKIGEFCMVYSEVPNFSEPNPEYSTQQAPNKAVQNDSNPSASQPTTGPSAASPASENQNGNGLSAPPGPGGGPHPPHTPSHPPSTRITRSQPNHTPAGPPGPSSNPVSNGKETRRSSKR
outcome.measure: pKd
Answers are plain numbers, as −log10 of the molar value.

Prompt: Can you share its pKd? I mean this binder: CCAGUGAGCCGGACUUGCCU (ssRNA, 2'-OMe all, PS all) [LSA_In3E3]
Completion: 8.48
